Please provide measured HEK293/EGFRvIII MFI for the entries that follow.
target: T1, full-length hEGFRvIII on cells (human, UniProt P00533 298-1210); assay: FACS, HEK293/EGFRvIII cells, directly labeled antibody
T1 construct: Expressed from vectors in HEK293, U87, B16F10.9, U251 and MMT 060562 cells; also called HEK293/EGFRvIII; HEK293/hEGFRvIII
Only the number, expressed in MFI, is required.

### Prompt Find the measured HEK293/EGFRvIII MFI of H1H1913N (antibody, human IgG1, V domains shown, Human IgG1 Fc; also called H3M1913N (same variable domains)) VH: QVQLQQWGAGLLKPSETLSLTCAVYGGSFSGDYWSWIRQSPGKGLEWIGEINHSGSTNYNPSLKSRVTISIDTSKNQFSLKLSSVTAADTAVYYCARGGGDYYYGMDVWGLGTTVTVSS VL: AIQMTQSPSSLSASVGDRVTITCRASQGIGNDLGWYQQKPGKAPNLLIYATSSLQSGVPSRFSGSGSGTDFTLTISSLQPEDFATYYCLQDYNYPWTFGQGTKVEIK and report it.
### Response 239000

### Prompt Find the measured HEK293/EGFRvIII MFI of H1H1911N (antibody, human IgG1, V domains shown, Human IgG1 Fc; also called H2M1911N (same variable domains)) VH: QVQLVESGGGVVQPGRSLRLSCAASGFTFSRYGIHWVRQAPGKGLEWVAVIWHDGSNKYYADSVKGRFTISRDNSKNTLYLQMTSLRAEDTAVYYCARDGLEIRDHYYYGMDVWGQGTTVTVSS VL: DIQMTQSPSTLSASVGDRVTITCRASQSTSSWLAWYQQKPGKAPTLLIYKASSLESGVPSKFSGSGSGTEFTLTISSLQPDDFATYYCQQYNRYSRTFGQGTKVEIK and report it.
### Response 55100

### Prompt Find the measured HEK293/EGFRvIII MFI of H1H1915N (antibody, human IgG1, V domains shown, Human IgG1 Fc; also called H2M1915N (same variable domains)) VH: QVQLVESGGGVVQPGRSLRLSCAASGFTFSAYAMHWVRQAPGKGLEWVAVIWYDGSNKNYADSVKGRFTVSRDNSKNTLYLEMNSLRAEDTAVYYCARDLMVGVTNYWGQGTLVTVST VL: DVVMTQSPLSLPVALGQPASISCRSSQSLVYTDGNTYLNWFHQRPGQSPRRLIYKVSNRDSGVPDRFTGSGSGTDFTLKISRVEAEDVGVFYCMQGSHWPPYTFGQGTKLEIK and report it.
### Response 73400

### Prompt Find the measured HEK293/EGFRvIII MFI of H1H1912N (antibody, human IgG1, V domains shown, Human IgG1 Fc; also called H2M1912N (same variable domains)) VH: EVQLVESGGGLVQPGRSLRLSCAASGFTFDDYAMHWVRQVPGKGLEWVSGISWNSGSIGYADSVKGRFTISRDNAKNSLYLQMNSLRAEDTALYYCAKDIHDYGKDYYYYYGMDVWGQGTTVTVSS VL: EIALTQSPGTLSLSPGERATLSCRASQSVSSTYLAWYQQKPGQAPRLLIYGASSRATGIPDRFSGSGSGTDFTLTISRLEPEDFAVYYCQQYDSSPITFGQGTRLEIK and report it.
### Response 122000
